pKi: −log10 of the molar value.
Consider the following pKi values measured on human A3AR (Homo sapiens, UniProt P0DMS8).
Sequence (P0DMS8 whole entry): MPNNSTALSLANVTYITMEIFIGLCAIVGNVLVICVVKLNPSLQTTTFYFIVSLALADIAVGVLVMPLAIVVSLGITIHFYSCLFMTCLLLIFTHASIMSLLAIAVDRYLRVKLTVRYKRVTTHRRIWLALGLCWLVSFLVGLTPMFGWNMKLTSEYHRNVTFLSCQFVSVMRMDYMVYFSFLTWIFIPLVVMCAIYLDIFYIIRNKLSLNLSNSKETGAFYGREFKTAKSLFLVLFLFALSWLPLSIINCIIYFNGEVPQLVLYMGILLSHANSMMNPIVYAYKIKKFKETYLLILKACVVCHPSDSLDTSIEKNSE
assay readout: pKi

[[record]]
molecule = "CCCn1nc(C(=O)Nc2nc(-c3ccccn3)cs2)ccc1=O [Compound 11]"
system = "human A3AR (Homo sapiens, UniProt P0DMS8)"
observed_value = 4.86

[[record]]
molecule = "COc1ccc(OCC(=O)Nc2nc(-c3ccccn3)cs2)cc1 [Compound 12]"
system = "human A3AR (Homo sapiens, UniProt P0DMS8)"
observed_value = 5.56

[[record]]
molecule = "Cc1cc(C)c2c(=O)[nH]c(SCC(=O)Nc3cc(C)on3)nc2n1 [Compound 26]"
system = "human A3AR (Homo sapiens, UniProt P0DMS8)"
observed_value = 5.41

[[record]]
molecule = "Nc1nc(COC(=O)c2cc3cc(F)ccc3[nH]2)nc2ccccc12 [Compound 15]"
system = "human A3AR (Homo sapiens, UniProt P0DMS8)"
observed_value = 5.03

[[record]]
molecule = "Cn1nnnc1SCC(=O)Nc1nc(-c2cccs2)cs1 [Compound 18]"
system = "human A3AR (Homo sapiens, UniProt P0DMS8)"
observed_value = 5.75

[[record]]
molecule = "O=C(Nc1nc(-c2cccc(F)c2)cs1)c1ccc2[nH]nnc2c1 [Compound 23]"
system = "human A3AR (Homo sapiens, UniProt P0DMS8)"
observed_value = 7.15

[[record]]
molecule = "CN(C(=O)Cc1csc(NC(=O)C2CC2)n1)c1ccccc1 [Compound 16]"
system = "human A3AR (Homo sapiens, UniProt P0DMS8)"
observed_value = 4.87

